Origin of measurements: ChEMBL document CHEMBL1201862

Tested on: COLO 205
Assay: NCI tumour cell line growth inhibition, 48 h
Calls of active or inactive are those of the source. No stated cut-off is given here; in the data, active = GI50 up to about 1.1 µM and inactive = higher.
measured attribute: GI50

Use these answered entries as a reference point.
{"columns": ["molecule", "measured attribute", "observed measurement"],
 "data": [
  ["O=C(O)CCCCCCCCC(=O)O [SEBACIC ACID]", "GI50", "> 79.3 µM (inactive)"],
  ["Oc1cc(Br)cc2cc(Br)cnc12", "GI50", "32.3 µM (inactive)"]
]}

Sure, the documented GI50 for CCOP(=O)(OCC)/C(C#N)=C/c1cccn1Cc1ccccc1 is 21.5 µM (inactive)

Sure, the documented GI50 for CC(=O)Nc1ccc(/C=C/C(=O)N2CC(CCl)c3c2cc(N)c2ccccc32)cc1 (centres undefined) is 0.00893 µM (active)
